biological target: ScFus1; assay: SPOT peptide array binding signal intensity (averaged, normalized) (arbitrary units (background-subtracted, floor 0; scale differs between SH3 domains)); higher = stronger binding of the SH3 domain to the peptide
readout kind: SPOT peptide array binding signal intensity
Kindly provide the number alone.

In [3]: df
Out[3]:
            binder  reading
0  MAMRPIPPLPTESEY      106
1  KRRAPPPVPKKPSSR     45.5
2  NMLKKKPLKKPLKRF      648
3  VNFRRIPTGPDSPPT       30
4  NNQRRKPLLLNIGDH      272
5  TPRLSLPRLPNKHHW      0.5
6  RRTRLRPPTPLSQLL      722
7  NQARKPFLLPATELS       15
8  LLRRTIPKRPFYHVL      307
9  LYEAMPPTLPHRDWK     95.5

Alright, here's another binder for you.
Quick one: SPOT peptide array binding signal intensity for NRPAIRIPSLKKPAL ?
243

Hey, just so you know, these numbers are from the supplement of paper PMC4466140.
